Give measured Aflatoxin B1 [ppb] for each item. Keep answers brief.
Respond numerically; units are ppb and should not be typed.

Given the entry CC(C)(C)C(O)(CCc1ccc(Cl)cc1)Cn1cncn1 (stereo not shown) [Tebuconazole] , what Aflatoxin B1 [ppb] was observed with Aspergillus flavus? 2445

Test system Aspergillus flavus; read-out Aflatoxin B1 [ppb]; what value for OC(Cc1ccccc1Cl)(Cn1nc[nH]c1=S)C1(Cl)CC1 (stereo not shown) [Prothioconazole] ? 865

Give Aflatoxin B1 [ppb] (Aspergillus flavus) of the following compound: N#Cc1c[nH]cc1-c1cccc2c1OC(F)(F)O2 [Fludioxonil] 1230

Reported Aflatoxin B1 [ppb] for Aspergillus flavus, given CON=C(C(=O)OC)c1ccccc1CON=C(C)c1cccc(C(F)(F)F)c1 [Trifloxystrobin] ? 375

###

experimental endpoint: Aflatoxin B1 [ppb] (ppb)
Only the number, expressed in ppb, is required.

Can you look up Aflatoxin B1 [ppb] on Aspergillus parasiticus for OC(Cc1ccccc1Cl)(Cn1nc[nH]c1=S)C1(Cl)CC1 (stereo not shown) ? 37785

API: value(readout=Aflatoxin B1 [ppb], system=Aspergillus parasiticus) for record N#Cc1c[nH]cc1-c1cccc2c1OC(F)(F)O2 17390

Enter reported Aflatoxin B1 [ppb] observed with Aspergillus parasiticus for CC(C)(C)C(O)(CCc1ccc(Cl)cc1)Cn1cncn1 (stereo not shown) 4545

// lookup Aflatoxin B1 [ppb] | system=Aspergillus parasiticus | key= CON=C(C(=O)OC)c1ccccc1CON=C(C)c1cccc(C(F)(F)F)c1 9775
